These entries and their values trace back to PubChem BioAssay AID1903.

// reported inhibition per item
- assayed.target: Large T antigen (Simian virus 40) (UniProt P03070)
- Sequence (P03070 whole entry, looked up): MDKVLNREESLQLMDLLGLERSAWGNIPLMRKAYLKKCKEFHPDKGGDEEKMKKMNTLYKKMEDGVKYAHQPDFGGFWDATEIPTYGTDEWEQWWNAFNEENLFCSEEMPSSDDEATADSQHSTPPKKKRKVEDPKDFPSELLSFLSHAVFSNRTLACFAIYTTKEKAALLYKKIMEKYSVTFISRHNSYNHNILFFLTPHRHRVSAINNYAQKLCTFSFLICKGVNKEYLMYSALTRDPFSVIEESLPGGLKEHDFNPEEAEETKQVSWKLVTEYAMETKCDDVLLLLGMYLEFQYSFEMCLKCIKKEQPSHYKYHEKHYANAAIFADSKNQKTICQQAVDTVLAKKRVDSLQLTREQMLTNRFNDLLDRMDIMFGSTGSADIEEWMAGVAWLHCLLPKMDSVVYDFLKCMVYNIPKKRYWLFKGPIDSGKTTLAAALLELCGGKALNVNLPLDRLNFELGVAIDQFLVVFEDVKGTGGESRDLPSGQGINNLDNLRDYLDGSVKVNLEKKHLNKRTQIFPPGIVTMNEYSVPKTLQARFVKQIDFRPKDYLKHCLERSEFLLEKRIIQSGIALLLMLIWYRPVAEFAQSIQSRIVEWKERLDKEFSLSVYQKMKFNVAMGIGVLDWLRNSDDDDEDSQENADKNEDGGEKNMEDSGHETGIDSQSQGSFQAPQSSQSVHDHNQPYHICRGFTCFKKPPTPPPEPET
- method: SV40 large T antigen inhibitors, biochemical (AID 1903)
- recorded.conditions: SV40 large T antigen ATPase/helicase inhibition assay; at 20 µM; hits give high values
Among all 310,000 compounds or so, about 1,200 (0.39%) were called active. The list is a sample of the results. Potency and affinity values are given separately.
recorded.endpoint: inhibition

COc1cc(OC)c(NS(=O)(=O)c2ccc(Cl)c(C(=O)OC(C)C(=O)N3CCCC3)c2)cc1Cl (stereo unspecified) : 0.34% (inactive)
Cc1ccc(N=C2C(=O)Nc3ccc(Br)cc32)cc1 : 4.2% (inactive)
Cc1cc(NC(=O)CSc2nc3ccccc3n2CC(=O)N2CCC(C)CC2)no1 : -5.11% (inactive)
COc1ccc(C(=O)O)cc1N1C(=O)Nc2ccccc2N1O : 13.6% (inactive)
CCN(CC)C1CC(=O)N(c2cccc(C)c2)C1=O (stereo unspecified) : 0.27% (inactive)
Cc1cc(C)c(NC(=O)COC(=O)CSc2ccc(Br)cc2C)c(C)c1 : -2.91% (inactive)
COc1cccc(-c2cc(CC3(O)CCN(CCCc4ccccc4)CC3)on2)c1 : 8.74% (inactive)
CCCCCc1nc2c(c(=O)c3ccccc3n2C)c(=O)n1Cc1ccc(OC)cc1 : 6.54% (inactive)
CN(Cc1ccccc1)S(=O)(=O)c1ccc(NC(=O)c2ccccc2C(=O)O)cc1 : 4.64% (inactive)
O=C1ON=C(c2ccccc2)/C1=C/c1cccnc1 : 1.23% (inactive)
O=C1ON=C(c2ccccc2)/C1=C/c1ccco1 : 36.5% (inactive)

###

- assayed.target: Large T antigen (Simian virus 40)
- method: SV40 large T antigen inhibitors, biochemical (AID 1903)
- recorded.conditions: SV40 large T antigen ATPase/helicase inhibition assay; at 20 µM; hits give high values
In all, about 310,000 compounds went through this assay and about 1,200 (0.39%) were called active. A selection follows. Measured potencies and affinities stand elsewhere.
// reported inhibition per item
recorded.endpoint: inhibition (%)

Cc1ccc(NC(=O)CSc2nnc(-c3cnccn3)n2C)cc1C : 29.7
Cc1ccc(OCCNCC(O)COc2ccccc2)cc1 (stereo not drawn) : 6.77
COC(=O)c1ccc(NC(=O)COc2cccc3c2OC(C)(C)C3)cc1 : -1.91
CCn1c(SCC(=O)Nc2ccc(NC(C)=O)cc2)nnc1C1CC1 : 12.8
Cc1ncc([N+](=O)[O-])n1Cc1ccc(Br)cc1 : 7.03
O=C(O)c1cc(-c2ccc(/C=C3/SC(=S)N(Cc4ccccc4)C3=O)o2)ccc1Cl : 24.7
COc1ccc(C(CNc2ccc(S(=O)(=O)N3CCCC3)cc2[N+](=O)[O-])N2CCCC2)cc1 (stereo not drawn) : 0.85
CCn1nnnc1SCC(=O)Nc1ccc(N(C)C)cc1 : 37.7
CCCc1cc2c(=O)c(-c3cscn3)c(C(=O)OCC)oc2cc1O : 2.58
Cc1ccc(-c2nc(CSCC(=O)NCCCN3CCOCC3)c(C)o2)cc1 : 26.4
CCc1ccc(NC(=O)CSc2nnc(-c3cnccn3)n2C)cc1 : 14.9
CCN1CCCC1CNC(=O)COc1cc(=O)n(C)c2ccccc12 (stereo not drawn) : -0.09
O=C1S/C(=C\C=C\c2ccco2)C(=O)N1c1ccccc1 : 20.3
CCOC(=O)CN1C(=O)S/C(=C\c2ccc(-c3ccc(C(=O)O)c(Cl)c3)o2)C1=O : 17
Cc1ccc(NC(=O)CSc2nnc(C)c(=O)n2N)cc1 : 14.2
CCn1c(SCC(=O)Nc2ccc(F)cc2)nnc1C1CC1 : 3.39
O=C(Nc1ccccc1N1CCN(C(=O)c2ccc(Cl)cc2)CC1)c1cccnc1 : -3.62
C#CCN1C(=O)S/C(=C\c2ccc(-c3ccc(Cl)c(C(=O)O)c3)o2)C1=O : 11.9
Cc1ccc(N2NC(=O)/C(=C/c3ccc(-c4ccc(Cl)c(C(=O)O)c4)o3)C2=O)cc1 : 14.8
CCCCn1nnnc1SCC(=O)Nc1ccc(C)cc1 : -2.62
COc1ccccc1OCc1nn[nH]n1 : 11.9
O=C1NC(=S)N/C1=C/C=C/c1ccccc1 : -22.6
Nc1ccc2c3c(cccc13)C(=O)N(c1ccccc1)C2=O : 6.29
